Test system: VZV strain Ellen
ASSAY PROTOCOL: VZV antiviral (ELISA) assay
Type: cell-based
RECORDED CONDITIONS: Human alphaherpesvirus 3, HFF, read-out: IC50 (ug/ml) VZV, VZV strain Ellen, HFF cells, ELISA
Hi! Just check whether IC50 is below 2 µg/mL. Below gives 1.0, equal or above gives 0.0.

> print(dat)
                                    compound  class.name
 1  CCCCOc1ccc(NC(=S)Nc2ccc(NC(=O)c3ccccc3F)cc2)cc1Cl [Example 809]         0.0
 2  CC(NC(=S)Nc1ccc(NC(=O)c2ccccc2F)cc1)c1ccc(S(=O)(=O)N2CCCCC2)cc1 (stereo not drawn) [Example 1009]         0.0
 3  CC(NC(=S)Nc1ccc(NC(=O)c2ccccc2Br)cc1)c1ccc(F)cc1 (stereo not drawn) [Example 795]         0.0
 4  COc1cc(OC)c(NC(=S)Nc2ccc(NC(=O)c3ccccc3-c3ccccc3)cc2)cc1Cl [Example 182]         0.0
 5  COc1cccc(C(C)NC(=S)Nc2ccc(NC(=O)c3ccccc3F)cc2)c1 (stereo not drawn) [Example 789]         1.0
 6  CCOc1ccc(NC(=S)Nc2ccc(NC(=O)c3ccccc3F)cc2)cc1Cl [Example 806]         0.0
 7  C[C@@H](NC(=S)Nc1ccc(NC(=O)c2ccccc2F)cc1)c1ccc(Br)cc1 [Example 1005]         0.0
 8  CC(NC(=S)Nc1ccc(NC(=O)c2ccccc2Cl)cc1)c1ccc(F)cc1 (stereo not drawn) [Example 755]         0.0
 9  CC(NC(=S)Nc1ccc(NC(=O)c2cc3ccccc3cn2)cc1)c1ccc(F)cc1 (stereo not drawn) [Example 984]         1.0
10  CC(NC(=S)Nc1ccc(NC(=O)c2ccccc2F)cc1)c1cccc(Br)c1 (stereo not drawn) [Example 780]         1.0
11  CC(NC(=S)Nc1ccc(NC(=O)c2ccccc2F)cc1)c1cccc(N(C)C)c1 (stereo not drawn) [Example 794]         1.0
12  CC(NC(=S)Nc1ccc(NC(=O)c2ccccc2F)cc1)c1cccc(Cl)c1 (stereo not drawn) [Example 779]         0.0
